Test: Pharmacokinetics of non-deuterated D-serine after a 300 mg/kg PO dose (Example 2)
Type: in vivo, Male Sprague-Dawley Rats
Conditions: male, Sprague-Dawley, rat; plasma, 300 mg/kg PO
property-name: half-life (h)
Write it as a number; the unit h goes unstated.

Query: Quote half-life reported for N[C@H](CO)C(=O)O [Non-deuterated D-Serine, D-serine] please.
Result: 3.63

###

Assay: Pharmacokinetic profile of Compound 100 and non-deuterated D-serine after 150 mg/kg PO doses (Example 3)
Type: in vivo, male Sprague-Dawley rats
Conditions: male, Sprague-Dawley, rat, cortex, po, 150 mg/kg, mean, 4 hr, read-out: Cortex concentration
Description: The pharmacokinetic profile of Compound 100 was investigated in male Sprague-Dawley rats compared with that of non-deuterated D-serine. […] Plasma was collected and analyzed for Compound 100 and non-deuterated D-Serine. Additional blood was collected and analyzed for the full clinical chemistry profile.
property-name: concentration at 4 h (ng/g)
Write it as a number; the unit ng/g goes unstated.

Query: Quote concentration at 4 h reported for [2H][C@@](N)(CO)C(=O)O please.
Result: 5070

###

Assay: Brain distribution of Compound 100 after a single 100 mg/kg PO dose (Example 10)
Format: in vivo, male Sprague-Dawley rats
Conditions: male, Sprague-Dawley, rat, cerebellum, mean, perfused brain, read-out: cerebellum concentration
property-name: concentration at 24 h (ng/g)
Write it as a number; the unit ng/g goes unstated.

Query: Quote concentration at 24 h reported for [2H][C@@](N)(CO)C(=O)O please.
Result: 290

###

Assay: Pharmacokinetic profile of Compound 100 and non-deuterated D-serine after 150 mg/kg PO doses (Example 3)
Type: in vivo, male Sprague-Dawley rats
Conditions: male, Sprague-Dawley, rat, plasma, po, 150 mg/kg, mean, 8 hr, read-out: Plasma concentration
property-name: concentration at 8 h (ng/mL)
Write it as a number; the unit ng/mL goes unstated.

Query: Quote concentration at 8 h reported for [2H][C@@](N)(CO)C(=O)O please.
Result: 2040

###

Assay: Cortex versus plasma half-life of Compound 100 after 4 days of 100 mg/kg PO dosing (Example 11)
Type: in vivo, male Sprague-Dawley rats
Details: male, Sprague-Dawley, rat, plasma; 100 mg/kg PO once per day for 4 days; read-out: plasma T1/2
property-name: half-life

Query: Quote half-life reported for [2H][C@@](N)(CO)C(=O)O please.
Result: < 12 h

###

Assay: Pharmacokinetics dose response of non-deuterated D-serine, 30-300 mg/kg PO (Example 4)
Type: in vivo, male Sprague-Dawley rats
Conditions: male, Sprague-Dawley, rat; plasma, 100 mg/kg PO, (CV %)
property-name: AUC(0-inf) (µg·h/mL)
Write it as a number; the unit µg·h/mL goes unstated.

Query: Quote AUC(0-inf) reported for N[C@H](CO)C(=O)O [Non-deuterated D-Serine, D-serine] please.
Result: 246

###

Assay: Pharmacokinetics of deuterated and non-deuterated D-serine, PO 10 mg/kg (Example 5)
Assay type: in vivo, male Sprague Dawley rats
Conditions: male, Sprague Dawley, rat, plasma, 0.5% Methylcellulose
property-name: Tmax (min)
Write it as a number; the unit min goes unstated.

compound | Tmax / min
[2H][C@@](N)(CO)C(=O)O [Compound 100] | 25

Query: Quote Tmax reported for N[C@H](CO)C(=O)O [Non-deuterated D-Serine, D-serine] please.
Result: 25
